system: Bulk splenocytes from C57BL/6 mice; assay: Cytokine response of splenocyte cultures (IL-4 and IFNγ ELISA); format: cell-based; details: 500 nM glycolipid, 48 hours, culture supernatant ELISA; ND = below the reliable level for detection
assayMetric: Cytokine Response IFNγ

compound | Cytokine Response IFNγ
CCCCCCCCCCCCCC[C@@H](O)[C@@H](O)[C@H](CO[C@H]1O[C@H](CO)[C@H](O)[C@H](O)[C@H]1O)NC(=O)C(OC)c1ccccc1 (stereo partly drawn) | 12.56 ng/mL
CCCCCCCCCCCCCC[C@@H](O)[C@@H](O)[C@H](CO[C@H]1O[C@H](CO)[C@H](O)[C@H](O)[C@H]1O)NC(=O)C(c1ccccc1)C(C)CC (stereo partly drawn) | 8.18 ng/mL
CCCCCCCCCCCCCC[C@@H](O)[C@@H](O)[C@H](CO[C@H]1O[C@H](CO)[C@H](O)[C@H](O)[C@H]1O)NC(=O)Cc1c(F)cccc1Cl | 4.57 ng/mL
CCCCCCCCCCCCCC[C@@H](O)[C@@H](O)[C@H](CO[C@H]1O[C@H](CO)[C@H](O)[C@H](O)[C@H]1O)NC(=O)Cc1cccc2ccccc12 | 11.79 ng/mL
CCCCCCCCCCCCCC[C@@H](O)[C@@H](O)[C@H](CO[C@H]1O[C@H](CO)[C@H](O)[C@H](O)[C@H]1O)NC(=O)C(CC)c1ccccc1 (stereo partly drawn) | 7.50 ng/mL

Here's the next entry for you.
IN: Identify measured Cytokine Response IFNγ associated with `CCCCCCCCCCCCCC[C@@H](O)[C@@H](O)[C@H](CO[C@H]1O[C@H](CO)[C@H](O)[C@H](O)[C@H]1O)NC(=O)c1ccc(OCCCCCCC)cc1`
OUT: 0.67 ng/mL

----------
test system: Bulk splenocytes from C57BL/6 mice; test: Cytokine response of splenocyte cultures (IL-4 and IFNγ ELISA); format: cell-based; conditions: 500 nM glycolipid, 48 hours, culture supernatant ELISA; ND = below the reliable level for detection
Decision: Cytokine Response IFNγ beneath 10 ng/mL gives MET; Cytokine Response IFNγ meeting or exceeding 10 ng/mL gives NOT MET.

Reference set, count: 4
molecule | assignedCategory
CCCCCCCCCCCCCCCCCCCCCCCC(=O)N[C@@H](COC1OC(CO)C(O)C(O)C1O)[C@H](O)[C@H](O)CCCCCCCCCCCCCC (stereo partly drawn) | MET
CCCCCCCCCCCCCC[C@@H](O)[C@@H](O)[C@H](CO[C@H]1O[C@H](CO)[C@H](O)[C@H](O)[C@H]1O)NC(=O)C1(c2ccccc2)CCCC1 | MET
CCCCCCCCCCCCCC[C@@H](O)[C@@H](O)[C@H](CO[C@H]1O[C@H](CO)[C@H](O)[C@H](O)[C@H]1O)NC(=O)C(C)(c1ccccc1)c1ccccc1 | MET
CCCCCCCCCCCCCC[C@@H](O)[C@@H](O)[C@H](CO[C@H]1O[C@H](CO)[C@H](O)[C@H](O)[C@H]1O)NC(=O)Cc1ccc(OCC)cc1 | MET

Okay, next one:
IN: Here's an entry: CCCCCCCCCCCCCCC(O)C(O)C(COC1OC(CO)C(O)C(O)C1O)NC(=O)Cc1ccccc1OC (stereo not drawn) . Is its Cytokine Response IFNγ below 10 ng/mL?
OUT: NOT MET

// data source = patent US8022043B2
